test system: PC-3; experiment: Antiproliferative activity against PC3 cells after 72 hrs by MTT assay; assay type: functional, cell-based; settings: Homo sapiens, PC-3, 72 h
# note: boundary value 6 µg/mL maps to rule not met; IC50 below it maps to rule met

Below, 6 molecules whose answers are already recorded.
Query block: Problem: For the molecule CCOC12SN(c3ccc([N+](=O)[O-])cc3Cl)N=C1c1cc(C)ccc1OC2(OCC)c1ccc(OC)cc1 (racemic) , is IC50 under 6 µg/mL?
Result block: rule not met

Query block: Problem: For the molecule CCOC12SN(c3ccc([N+](=O)[O-])cc3Cl)N=C1c1ccccc1OC2(OCC)c1ccc(OC)cc1 (racemic) , is IC50 under 6 µg/mL?
Result block: rule met

Query block: Problem: For the molecule CCOC12SN(c3ccc(S(C)(=O)=O)cc3Cl)N=C1c1ccccc1OC2(OCC)c1ccc(Cl)cc1 (racemic) , is IC50 under 6 µg/mL?
Result block: rule met

Query block: Problem: For the molecule CCOC12SN(c3ccc([N+](=O)[O-])cc3Cl)N=C1c1ccccc1OC2(OCC)c1ccc(Cl)cc1 (racemic) , is IC50 under 6 µg/mL?
Result block: rule met

Query block: Problem: For the molecule CCOC12SN(c3ccc([N+](=O)[O-])cc3Cl)N=C1c1c(OC)cc(OC)c(Cl)c1OC2(OCC)c1ccccc1Cl (racemic) , is IC50 under 6 µg/mL?
Result block: rule not met

Query block: Problem: For the molecule O=C1CC(c2ccccc2)Oc2ccccc21 (stereo not drawn) , is IC50 under 6 µg/mL?
Result block: rule not met

Next item in the queue.
Query block: Problem: For the molecule CCOC12SN(c3ccc([N+](=O)[O-])cc3Cl)N=C1c1cc(C)ccc1OC2(OCC)c1cc2c(cc1Cl)OCO2 (racemic) , is IC50 under 6 µg/mL?
Result block: rule not met
